- target desc: phosphorylated LCK kinase (Homo sapiens, UniProt P06239, C224D/P223M)
- Construct: starting from amino acid 223 to the end of the protein at amino acid 509; made in house; host or cells: insect cells
- Sequence (P06239 223-509 P223M/C224D): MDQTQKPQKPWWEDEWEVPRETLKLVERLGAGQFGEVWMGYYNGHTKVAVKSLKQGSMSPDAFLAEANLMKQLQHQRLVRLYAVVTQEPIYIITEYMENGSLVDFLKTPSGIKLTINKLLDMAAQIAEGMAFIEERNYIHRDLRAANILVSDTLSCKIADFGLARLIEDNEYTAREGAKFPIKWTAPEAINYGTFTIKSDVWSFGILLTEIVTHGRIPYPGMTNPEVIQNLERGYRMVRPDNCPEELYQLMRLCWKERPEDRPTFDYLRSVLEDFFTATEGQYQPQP
- experiment notes: Inhibition of phosphorylated LCK tyrosine kinase activity (coupled spectrophotometric assay)
- Type: biochemical
- assay conditions: read-out: P-LCK % Inhibition at 1 μM
Where a name gives a salt, the structure may show the parent alone.
endpoint: inhibition at 1 µM (%)

>>> recorded_number("CN1CCC[C@H]1CNC(=O)c1ccc(Nc2nc(N)c(C(=O)c3c(F)cccc3F)s2)cc1 [Example A31, Dihydrochloride]")
0
>>> recorded_number("Nc1nc(Nc2ccc(C(=O)NCCNc3ccccc3)cc2)sc1C(=O)c1c(F)cccc1F [Example A2]")
4
>>> recorded_number("Nc1nc(Nc2ccc(C(=O)Nc3ccc(N4CCOCC4)cc3)cc2)sc1C(=O)c1c(F)cccc1F [Example A21]")
0
>>> recorded_number("Nc1nc(Nc2ccc(C(=O)NCCc3ccc(O)cc3)cc2)sc1C(=O)c1c(F)cccc1F [Example A14]")
0
>>> recorded_number("CCN1CCCC1CNC(=O)c1ccc(Nc2nc(N)c(C(=O)c3c(F)cccc3F)s2)cc1 (centres unmarked) [Example A11]")
6
>>> recorded_number("CC(CCCC(C)(C)O)NC(=O)c1ccc(Nc2nc(N)c(C(=O)c3c(F)cccc3F)s2)cc1 (centres unmarked) [Example A5]")
3
>>> recorded_number("Nc1nc(Nc2ccc(C(=O)NCCN3CCCCC3)cc2)sc1C(=O)c1c(F)cccc1F [Example A15]")
0
>>> recorded_number("CC(CN(C)C)NC(=O)c1ccc(Nc2nc(N)c(C(=O)c3c(F)cccc3F)s2)cc1 (centres unmarked) [Example A20, Hydrochloride Salt]")
0

====

- target desc: human CDK4/cyclin D3 (Homo sapiens, UniProt P11802)
- Construct: made in house; host or cells: insect cells co-infected with baculovirus vectors
- Sequence (P11802 whole entry): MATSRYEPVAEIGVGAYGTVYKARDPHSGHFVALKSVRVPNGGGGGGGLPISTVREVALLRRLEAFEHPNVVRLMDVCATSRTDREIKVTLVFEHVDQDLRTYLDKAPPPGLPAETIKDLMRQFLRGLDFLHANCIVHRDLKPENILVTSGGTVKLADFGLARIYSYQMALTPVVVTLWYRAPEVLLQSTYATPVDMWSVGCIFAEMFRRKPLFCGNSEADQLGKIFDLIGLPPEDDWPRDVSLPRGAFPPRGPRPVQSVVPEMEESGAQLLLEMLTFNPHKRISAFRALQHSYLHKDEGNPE
- Sequence (P30281 1-264 partner limits assumed): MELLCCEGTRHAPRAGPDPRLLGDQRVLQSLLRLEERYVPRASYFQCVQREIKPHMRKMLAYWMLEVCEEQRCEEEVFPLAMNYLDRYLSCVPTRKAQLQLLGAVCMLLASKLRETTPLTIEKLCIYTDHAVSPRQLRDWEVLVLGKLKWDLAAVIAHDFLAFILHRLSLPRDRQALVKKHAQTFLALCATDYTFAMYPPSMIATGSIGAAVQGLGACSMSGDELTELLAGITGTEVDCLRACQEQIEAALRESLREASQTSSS
- experiment notes: Inhibition of CDK4/cyclin D retinoblastoma kinase activity (Ki; % inhibition)
- Format: biochemical
- assay conditions: 0.03 μM compound
Output satisfied for CDK4 % Inhibition at 0.03 μM not less than 20%; output not satisfied otherwise.

>>> label("Nc1nc(Nc2ccc(C(=O)N(CCCO)Cc3ccccn3)cc2)sc1C(=O)c1c(F)cccc1F")
"not satisfied"
>>> label("CC1CC(C)CN(C(=O)c2ccc(Nc3nc(N)c(C(=O)c4c(F)cccc4F)s3)cc2)C1 (stereo not drawn)")
"not satisfied"
>>> label("Cc1cccc(CN(C)C(=O)c2ccc(Nc3nc(N)c(C(=O)c4c(F)cccc4F)s3)cc2)n1")
"not satisfied"
>>> label("Nc1nc(Nc2ccc(C(=O)NC[C@@H]3CCCC[C@H]3O)cc2)sc1C(=O)c1c(F)cccc1F (relative stereo)")
"not satisfied"
>>> label("CC(C)(C)C1CCC(NC(=O)c2ccc(Nc3nc(N)c(C(=O)c4c(F)cccc4F)s3)cc2)CC1 (stereo not drawn)")
"not satisfied"
>>> label("Nc1nc(Nc2ccc(C(=O)NCCOCCO)cc2)sc1C(=O)c1c(F)cccc1F")
"not satisfied"
>>> label("Nc1nc(Nc2ccc(C(=O)NCCc3ccccc3F)cc2)sc1C(=O)c1c(F)cccc1F")
"not satisfied"
>>> label("CCOC(=O)N1CCC(NC(=O)c2ccc(Nc3nc(N)c(C(=O)c4c(F)cccc4F)s3)cc2)CC1")
"satisfied"
>>> label("CCCN(CCO)C(=O)c1ccc(Nc2nc(N)c(C(=O)c3c(F)cccc3F)s2)cc1")
"satisfied"
>>> label("Nc1nc(Nc2ccc(C(=O)N3CCN(CCO)CC3)cc2)sc1C(=O)c1c(F)cccc1F")
"not satisfied"
>>> label("Nc1nc(Nc2ccc(C(=O)Nc3ccc4[nH]ccc4c3)cc2)sc1C(=O)c1c(F)cccc1F")
"not satisfied"
>>> label("CN(CCC1OCCO1)C(=O)c1ccc(Nc2nc(N)c(C(=O)c3c(F)cccc3F)s2)cc1")
"not satisfied"
>>> label("Cc1cc(NC(=O)c2ccc(Nc3nc(N)c(C(=O)c4c(F)cccc4F)s3)cc2)no1")
"not satisfied"
